# testedSystem: Heat shock protein HSP 90-beta (Homo sapiens, UniProt P08238)
# Sequence (P08238 whole entry): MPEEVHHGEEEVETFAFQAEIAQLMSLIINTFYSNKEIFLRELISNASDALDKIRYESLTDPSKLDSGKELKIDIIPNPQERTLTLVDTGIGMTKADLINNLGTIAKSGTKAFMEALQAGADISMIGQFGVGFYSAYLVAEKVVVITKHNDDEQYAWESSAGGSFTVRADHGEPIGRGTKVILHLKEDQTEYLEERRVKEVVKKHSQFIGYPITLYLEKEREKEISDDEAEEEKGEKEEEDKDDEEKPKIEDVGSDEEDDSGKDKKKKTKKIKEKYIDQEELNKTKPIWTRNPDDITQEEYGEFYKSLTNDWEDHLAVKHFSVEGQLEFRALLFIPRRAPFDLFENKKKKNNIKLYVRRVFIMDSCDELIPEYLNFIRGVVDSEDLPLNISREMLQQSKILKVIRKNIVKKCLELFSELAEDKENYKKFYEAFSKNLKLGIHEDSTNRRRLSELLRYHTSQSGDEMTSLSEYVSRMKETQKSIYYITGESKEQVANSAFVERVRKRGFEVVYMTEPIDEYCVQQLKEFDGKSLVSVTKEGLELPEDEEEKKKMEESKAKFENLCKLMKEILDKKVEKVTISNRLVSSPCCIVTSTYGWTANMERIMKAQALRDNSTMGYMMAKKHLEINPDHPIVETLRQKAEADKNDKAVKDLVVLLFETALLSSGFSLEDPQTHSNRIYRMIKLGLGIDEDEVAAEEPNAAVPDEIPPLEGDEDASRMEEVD
# assayProcedure: Displacement of [3H]17AAG from human recombinant Hsp90 after 30 mins by beta scintillation counting
Measured IC50, listed per entry.
Provide the reading as a plain figure in µM.

# count of solved cases: 3
Give the observed IC50 of `CN(Cc1ccc(Cl)c(F)c1)C(=O)c1cc2c(Cc3ccccc3)n[nH]c2cc1O` for Heat shock protein HSP 90-beta (Homo sapiens, UniProt P08238).
0.98

Give the observed IC50 of `Cc1ccc(-c2nc(N)nc3ccc(Cl)cc23)cc1` for Heat shock protein HSP 90-beta (Homo sapiens, UniProt P08238).
0.9

Give the observed IC50 of `Cc1ccc(Cc2n[nH]c3cc(O)c(C(=O)N(C)Cc4ccccc4)cc23)cc1` for Heat shock protein HSP 90-beta (Homo sapiens, UniProt P08238).
1.3

Continue with the compound presented below.
Give the observed IC50 of `CN(Cc1cccc(F)c1)C(=O)c1cc2c(Cc3cccc(Cl)c3)n[nH]c2cc1O` for Heat shock protein HSP 90-beta (Homo sapiens, UniProt P08238).
0.71
